As shown below, each of these compounds has a reported EC50 value.
- Tgt: G protein-coupled receptor 119 (GPR-119) (Mesocricetus auratus)
- Construct: hamster-derived β-cells containing G protein-coupled receptor 119 (GPR-119), HIT-T15 cells; host or cells: HIT-T15 (hamster pancreatic β-cells)
- Test: Evaluation of cAMP activity in HIT-T15 cells (HTRF cAMP dynamic kit)
- Format: cell-based, hamster
- Stated conditions: EC50 (nM), cAMP activation, 1 h at 37° C., six concentrations
- Method: To check whether the cyclohexene derivatives according to the present invention activate cyclic adenosine monophosphate (cAMP), experiments were carried out, as follows. The HIT-T15 cells were plated on a 96-well plate at 60,000 cells per well. […] The cyclic adenosine monophosphate (cAMP) activity was measured according to the manufacturer's instruction using a cAMP dynamic kit commercially available from Cis Bio Inc. (Bedford, Mass.). […] Fluorescence was read in Flex Station (Molecular Devices). […]
Please state the figure in nM; there is no need to write the unit.

- Compound: "CC(C)c1noc(N2CCC(COc3ccc(C4=CCC(C(=O)N5CCC6(CC5)OCCO6)CC4)cc3)CC2)n1 (stereo not shown)"
  Tgt: "G protein-coupled receptor 119 (GPR-119) (Mesocricetus auratus)"
  EC50 [nM]: 21

Query string: # returns recorded EC50 (system: G protein-coupled receptor 119 (GPR-119) (Mesocricetus auratus)) for CC(C)(C)OC(=O)N1CCC(COc2ccc(C3=CCC(C(=O)N4CCC5(CC4)OCCO5)CC3)cc2)CC1 (stereo not shown)
Result string: 9

Query string: Now the compound CC(C)c1noc(N2CCC(COc3ccc(-c4ccc(S(C)(=O)=O)cc4)nc3)CC2)n1 [Comparative Example 2, reference compound]
Result string: 49

Query string: Now the compound CC(C)(C)OC(=O)N1CCC(COc2ccc(C3=CCC(C(=O)N4CCC(=O)CC4)CC3)cc2)CC1 (stereo not shown)
Result string: 33

Query string: Now the compound CCc1cnc(N2CCC(COc3ccc(C4=CCC(C(=O)N5CCC(=O)CC5)CC4)cc3)CC2)nc1 (stereo not shown)
Result string: 27

Query string: Now the compound CCc1cnc(N2CCC(COc3ccc(C4=CCC(C(=O)N5CCC6(CC5)OCCO6)CC4)cc3)CC2)nc1 (stereo not shown)
Result string: 11

Query string: Now the compound CC(C)c1noc(N2CCC(COc3ccc(C4=CCC(C(=O)N5CCC(=O)CC5)CC4)cc3)CC2)n1 (stereo not shown)
Result string: 28

----------
- Tgt: G protein-coupled receptor 119 (GPR-119) (Mesocricetus auratus)
- Construct: hamster-derived β-cells containing G protein-coupled receptor 119 (GPR-119), HIT-T15 cells; host or cells: HIT-T15 (hamster pancreatic β-cells)
- Sequence (A0A1U8CD06 1-334): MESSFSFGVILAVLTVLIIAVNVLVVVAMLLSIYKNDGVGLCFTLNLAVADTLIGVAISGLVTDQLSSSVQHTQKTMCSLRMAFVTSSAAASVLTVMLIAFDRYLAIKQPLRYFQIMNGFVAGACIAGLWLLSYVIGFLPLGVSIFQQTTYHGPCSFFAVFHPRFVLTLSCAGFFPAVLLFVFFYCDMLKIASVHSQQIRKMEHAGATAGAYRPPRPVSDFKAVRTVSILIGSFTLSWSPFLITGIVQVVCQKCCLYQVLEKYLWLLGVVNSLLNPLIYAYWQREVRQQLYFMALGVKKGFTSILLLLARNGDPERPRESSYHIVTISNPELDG
- Test: Evaluation of cAMP activity in HIT-T15 cells (HTRF cAMP dynamic kit)
- Type: cell-based, hamster
- Stated conditions: cAMP activation, 1 h at 37° C., six concentrations, read-out: EC50
- Experimental: To check whether the cyclohexene derivatives according to the present invention activate cyclic adenosine monophosphate (cAMP), experiments were carried out, as follows. The HIT-T15 cells were plated on a 96-well plate at 60,000 cells per well. […] The cyclic adenosine monophosphate (cAMP) activity was measured according to the manufacturer's instruction using a cAMP dynamic kit commercially available from Cis Bio Inc. (Bedford, Mass.). […] Fluorescence was read in Flex Station (Molecular Devices). […]
As shown below, each of these compounds has a reported EC50 value.

Query string: Given the compound CC(C)(C)OC(=O)N1CCC(COc2ccc(C3=CCC(C(=O)NC4CC4)CC3)cc2)CC1 (stereo not shown) , what is its reported EC50?
Result string: 40 nM

Query string: Now the compound CC(C)(C)OC(=O)N1CCC(COc2ccc(C3=CCC(C(=O)N4CC[C@@H](O)C4)CC3)cc2F)CC1 (stereo partly shown)
Result string: 25 nM

----------
- Test: in vivo
- Stated conditions: female, Ihara's cataract rats (ICR), rat, po
As shown below, each of these compounds has a reported LD50 value.

- Compound: "CCc1cnc(N2CCC(COc3ccc(C4=CCC(C(=O)N5CCC[C@H]5CO)CC4)cc3)CC2)nc1 (some centres unmarked)"
  Endpoint name: "LD50"
  Reported value: "≥ 2000 mg/kg"

Query string: Given the compound CC(C)c1noc(N2CCC(COc3ccc(C4=CCC(C(=O)N5CC[C@@H](O)C5)CC4)cc3)CC2)n1 (some centres unmarked) , what is its reported LD50?
Result string: ≥ 2000 mg/kg

----------
- Tgt: G protein-coupled receptor 119 (GPR-119) (Mesocricetus auratus)
- Construct: hamster-derived β-cells containing G protein-coupled receptor 119 (GPR-119), HIT-T15 cells; host or cells: HIT-T15 (hamster pancreatic β-cells)
- Test: Evaluation of cAMP activity in HIT-T15 cells (HTRF cAMP dynamic kit)
- Assay type: cell-based, hamster
- Stated conditions: cAMP activation, 1 h at 37° C., six concentrations, read-out: EC50
Endpoint name: log10 of EC50 (log10 of the value in nM)
Lab note - EC50 converted to log10 from values in nM.

Examples from the recorded data:
- Molecule: "CC(C)(C)OC(=O)N1CCC(COc2ccc(C3=CCC(C(=O)N4CCC[C@H]4C#N)CC3)cc2F)CC1 (stereo partly drawn) [Example 114]"
  log10 of EC50: 1.15
- Molecule: "CCc1cnc(N2CCC(COc3ccc(C4=CCC(C(=O)N5CCC(O)CC5)CC4)cc3)CC2)nc1 (stereo not drawn) [Example 164]"
  log10 of EC50: 1.20
- Molecule: "CC(C)c1noc(N2CCC(COc3ccc(C4=CCC(C(=O)NCC(F)F)CC4)cc3)CC2)n1 (stereo not drawn) [Example 51]"
  log10 of EC50: 1.82
- Molecule: "CCc1cnc(N2CCC(COc3ccc(C4=CCC(C(=O)NC[C@@H](C)O)CC4)cc3)CC2)nc1 (stereo partly drawn) [Example 30]"
  log10 of EC50: 2.02
- Molecule: "CCc1cnc(N2CCC(COc3ccc(C4=CCC(C(=O)N5CCN(C6CC6)CC5)CC4)cc3)CC2)nc1 (stereo not drawn) [Example 123]"
  log10 of EC50: 1.54

Query string: Given the molecule CO/N=C1\CCN(C(=O)C2CC=C(c3ccc(OCC4CCN(C(=O)OC(C)(C)C)CC4)cc3)CC2)C1 (stereo not drawn) [Example 273] , what is its reported log10 of EC50?
Result string: 1.04

Query string: Now the molecule CCc1cnc(N2CCC(COc3ccc(C4=CCC(C(=O)N5CCC(=NO)CC5)CC4)cc3)CC2)nc1 (stereo not drawn) [Example 277]
Result string: 1.30

----------
- Tgt: G protein-coupled receptor 119 (GPR-119) (Mesocricetus auratus, UniProt A0A1U8CD06)
- Construct: hamster-derived β-cells containing G protein-coupled receptor 119 (GPR-119), HIT-T15 cells; host or cells: HIT-T15 (hamster pancreatic β-cells)
- Test: Evaluation of cAMP activity in HIT-T15 cells (HTRF cAMP dynamic kit)
- Format: cell-based, hamster
- Stated conditions: cAMP activation, 1 h at 37° C., six concentrations, read-out: EC50
As shown below, each of these compounds has a reported EC50 value.
Please state the figure in nM; there is no need to write the unit.

- Compound: "CC(C)(C)OC(=O)N1CCC(COc2ccc(C3=CCC(C(=O)N4CC[C@H](F)C4)CC3)cc2F)CC1 (stereo partly shown)"
  EC50 (nM): 8
- Compound: "CC(C)c1noc(N2CCC(COc3ccc(C4=CCC(C(=O)N5CCOCC5)CC4)nc3)CC2)n1 (stereo not shown)"
  EC50 (nM): 95

Query string: # returns recorded EC50 (system: G protein-coupled receptor 119 (GPR-119) (Mesocricetus auratus, UniProt A0A1U8CD06)) for C[C@@H](O)CNC(=O)C1CC=C(c2ccc(OCC3CCN(C(=O)OC(C)(C)C)CC3)c(F)c2)CC1 (stereo partly shown)
Result string: 70

Query string: Now the compound CC(C)(C)OC(=O)N1CCC(COc2ccc(C3=CCC(C(=O)N4CC[C@@H](F)C4)CC3)cn2)CC1 (stereo partly shown)
Result string: 24

Query string: Now the compound CC(C)c1noc(N2CCC(COc3ccc(C4=CCC(C(=O)NC[C@@H](C)O)CC4)cc3)CC2)n1 (stereo partly shown)
Result string: 110

Query string: Now the compound CC(C)c1noc(N2CCC(COc3ccc(C4=CCC(C(=O)NCCC(=O)N5CCC[C@H]5C#N)CC4)cc3F)CC2)n1 (stereo partly shown)
Result string: 120

Query string: Now the compound CC(C)(C)OC(=O)N1CCC(COc2ccc(C3=CCC(C(=O)N4CCC[C@H]4C(N)=O)CC3)cc2F)CC1 (stereo partly shown)
Result string: 35

Where do these numbers come from? They come from patent US9758527B2.
